Reference for the values: PubChem BioAssay AID651548

molecular target: Histone-lysine N-methyltransferase EZH2 (Homo sapiens) (UniProt Q15910); experiment: inhibition of PRC2 H3K27 methylation – biochemical, DELFIA time-resolved fluorescence, single point, primary screen (AID 651548); details: DELFIA TRF, 1 h, at 12.5 µM, hits give high values;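 also: dimethyl H3K27 on biotinylated H3 21-44 peptide detected by antibody; plate controls were median neutral control wells for no effect and median positive control wells for full effect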
Sequence (Q15910 whole entry, looked up): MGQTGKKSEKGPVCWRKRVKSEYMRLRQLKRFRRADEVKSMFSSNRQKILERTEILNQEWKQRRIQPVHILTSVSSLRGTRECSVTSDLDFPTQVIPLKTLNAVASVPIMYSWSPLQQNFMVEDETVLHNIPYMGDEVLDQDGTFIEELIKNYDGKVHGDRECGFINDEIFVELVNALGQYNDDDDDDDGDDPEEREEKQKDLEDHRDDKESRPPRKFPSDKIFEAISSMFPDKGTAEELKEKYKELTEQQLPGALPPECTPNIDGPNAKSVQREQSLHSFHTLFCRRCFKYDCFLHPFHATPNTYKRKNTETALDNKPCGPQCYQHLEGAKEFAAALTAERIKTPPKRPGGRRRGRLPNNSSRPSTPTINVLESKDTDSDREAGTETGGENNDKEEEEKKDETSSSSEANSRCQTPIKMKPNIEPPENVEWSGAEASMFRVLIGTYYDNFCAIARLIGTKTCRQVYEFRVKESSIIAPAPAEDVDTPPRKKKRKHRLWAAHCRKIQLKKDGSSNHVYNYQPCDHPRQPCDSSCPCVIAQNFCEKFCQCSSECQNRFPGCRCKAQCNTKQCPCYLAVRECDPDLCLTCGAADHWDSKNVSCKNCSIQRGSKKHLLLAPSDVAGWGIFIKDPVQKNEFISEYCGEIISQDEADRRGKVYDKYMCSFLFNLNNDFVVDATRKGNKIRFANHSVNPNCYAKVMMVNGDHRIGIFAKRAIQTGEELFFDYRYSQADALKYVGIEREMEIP
Out of some 57,000 compounds screened, about 200 (0.35%) were called active. What follows is part of a selection rich in actives, with near analogues and random picks from the rest.
Reported values of inhibition for individual entries
PARAMETER: inhibition (%)

# SMILES STR, SUBJECT OF TEST, RESULT NUMBER
records = [
    ("CN(C)C(=O)C[C@H]1CC[C@H](NC(=O)NC2CCCC2)[C@@H](CO)O1", "Histone-lysine N-methyltransferase EZH2 (Homo sapiens) (UniProt Q15910)", 6.6),
    ("CO[C@H]1CN(C)C(=O)c2ccc(NC(C)=O)cc2OC[C@@H](C)NC[C@H]1C", "Histone-lysine N-methyltransferase EZH2 (Homo sapiens) (UniProt Q15910)", -8.55),
    ("CN(C)CC(=O)N[C@H]1CC[C@@H](CCNC(=O)C2CCCC2)O[C@@H]1CO", "Histone-lysine N-methyltransferase EZH2 (Homo sapiens) (UniProt Q15910)", 4.19),
    ("CO[C@H]1CN(C)C(=O)c2cc(NS(=O)(=O)CC(F)(F)F)ccc2OC[C@H](C)N(C(=O)c2ccc3c(c2)OCO3)C[C@H]1C", "Histone-lysine N-methyltransferase EZH2 (Homo sapiens) (UniProt Q15910)", 13),
    ("O=C(C[C@@H]1CC[C@@H](NC(=O)c2ccc3c(c2)OCO3)[C@H](CO)O1)NCc1ccc(F)cc1", "Histone-lysine N-methyltransferase EZH2 (Homo sapiens) (UniProt Q15910)", -0.86),
    ("O=C(C[C@@H]1CC[C@H](NC(=O)Nc2ccc(F)cc2)[C@H](CO)O1)NCc1ccccn1", "Histone-lysine N-methyltransferase EZH2 (Homo sapiens) (UniProt Q15910)", -0.96),
    ("CO[C@@H]1CN(C)C(=O)c2cc(NC(=O)C3CCC3)ccc2OC[C@H](C)N(C(=O)CN(C)C)C[C@@H]1C", "Histone-lysine N-methyltransferase EZH2 (Homo sapiens) (UniProt Q15910)", -0.841),
    ("CC(C)NC(=O)N[C@@H]1C=C[C@@H](CC(=O)N2CCCCC2)O[C@@H]1CO", "Histone-lysine N-methyltransferase EZH2 (Homo sapiens) (UniProt Q15910)", 7.89),
]

----------
target: Histone-lysine N-methyltransferase EZH2 (Homo sapiens); experiment: inhibition of PRC2 H3K27 methylation – biochemical, DELFIA time-resolved fluorescence, single point, primary screen (AID 651548); details: DELFIA TRF, 1 h, at 12.5 µM, hits give high values;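 also: dimethyl H3K27 on biotinylated H3 21-44 peptide detected by antibody; plate controls were median neutral control wells for no effect and median positive control wells for full effect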
About 200 (0.35%) of roughly 57,000 compounds were called active. Shown is part of a subset that was picked to be rich in actives.
Reported values of inhibition for individual entries
PARAMETER: inhibition (%)

# MOLECULE, RESULT NUMBER
records = [
    ("COCC(=O)Nc1ccc2c(c1)[C@@H]1C[C@H](CC(=O)NCc3cc(F)ccc3F)O[C@@H](CO)[C@@H]1O2", -6.69),
    ("C[C@@H]1CCCCO[C@H](CN(C)C)[C@H](C)CN([C@@H](C)CO)C(=O)c2cc(NS(=O)(=O)c3ccccc3)ccc2O1", -7.21),
    ("O=C(C[C@@H]1C[C@@H]2c3cc(NC(=O)Nc4ccccc4F)ccc3O[C@@H]2[C@@H](CO)O1)NCCc1ccccc1", -11.7),
    ("O=C(C[C@@H]1C[C@@H]2c3cc(NC(=O)NC4CCCC4)ccc3O[C@@H]2[C@H](CO)O1)NCC(F)(F)F", 3.2),
    ("CO[C@H]1CN(C)C(=O)c2cc(NC(=O)Nc3ccccc3F)ccc2OC[C@@H](C)N(CCC(F)(F)F)C[C@@H]1C", -15.8),
    ("C[C@@H]1CN([C@@H](C)CO)C(=O)c2cc(Br)cnc2O[C@H]1CN(C)Cc1ccc(-c2ccccc2)cc1", 32.3),
    ("CCCN(C)C[C@H]1OCCCC[C@@H](C)Oc2ccc(NC(=O)Nc3ccc(F)cc3)cc2C(=O)N([C@@H](C)CO)C[C@H]1C", 18.6),
    ("CCOC(=O)C1CCCN(C(=O)c2c[nH]n3c(=O)c(Cc4ccc(Cl)cc4)c(C)nc23)C1 (stereo not drawn)", 11.7),
]
